Data provenance: PubChem BioAssay (NCI)

# maps each entry to its TGI
Test system: LOX IMVI melanoma
experiment_notes: NCI tumour cell line growth inhibition, 48 h
Where a SMILES comes first, the peptide text is derived from it. [ ]: non-standard residue; d: D form. The star is where a group is joined. Bn2Val = CC(C)[C@@H](C(=O)*)N(Cc1ccccc1)Cc1ccccc1; NH(3,4-diMeO-benzyl) = COc1ccc(CN*)cc1OC; NMeV = CN[C@H](C(=O)O)C(C)C
property_name: TGI

molecule	measurement
CC[C@H]1C=CCC[C@@]2(C[C@@H]3CC[C@H]4[C@H](C(=O)OCCCCCCCCCCCCCCCC(=O)N(CCCN)C[C@@H](O)CCN)[C@]5(CCC[C@@H](C)O5)NC(=[N+]34)N2)O1	1.38 µM
CCOC(=O)c1cc2cc(C)cc(C(=O)c3ccc([N+](=O)[O-])cc3)c2[nH]1	> 100 µM
COC(=O)Cc1cc(=O)n2c([nH]c3ccccc32)c1C#N	> 100 µM
Fc1ccc2c3c([nH]c2c1)CCNC3	> 100 µM
CC(=O)CCC[C@H](C)[C@@H](O)[C@@H]1O[C@H]([C@@]2(C)CCC(=O)O2)C[C@H]1C(=O)O	> 100 µM
COc1ccc(C)cc1Nc1nnc(-c2ccc(N)cc2)s1	> 100 µM
COc1cc(C)c(NC(=O)CN(C)C)cc1Nc1nc(Nc2cccc(F)c2C(N)=O)c2cc[nH]c2n1	6.1 µM
Cc1cn(C2CC(NC(=NCC3OC(n4cnc5c(N)ncnc54)CC3O)NC#N)C(CO)O2)c(=O)[nH]c1=O (stereo unspecified)	> 100 µM
CC(C)NC(=O)OCc1c(COC(=O)NC(C)C)c(-c2ccc[n+](COC(=O)C(C)(C)C)c2)n2c1CCC2	> 100 µM
COc1ccc(CNC(=O)[C@@H]2CCCN2C(=O)[C@@H]2CCCN2C(=O)[C@H](C(C)C)N(C)C(=O)[C@@H](NC(=O)[C@H](C(C)C)N(Cc2ccccc2)Cc2ccccc2)C(C)C)cc1OC (Bn2Val-V[NMeV]PP-{NH(3,4-diMeO-benzyl)})	16.4 µM
Nc1nc(=Nc2ccccc2)ss1	> 100 µM
c1cc(C[S+]2CCCC2)sc1C[S+]1CCCC1	> 100 µM
C[N+](C)(CCO)CCN1c2ccccc2Sc2ccccc21	> 10 µM
C=C1C(=O)O[C@H]2[C@H]1CC/C(COC(=O)NCc1cc(OC)cc(OC)c1)=C\CC[C@@]1(C)O[C@@H]21	1.89 µM
CC1=CC(=O)/C(=C/n2c(=S)[nH]c3ccc([N+](=O)[O-])cc32)C(=O)O1	> 100 µM
c1ccc2c(CNCCCCCCCCCCCCNCc3cccc4ccccc34)cccc2c1	2.52 µM
CCOP(=O)(OCC)C(Nc1ccc(C(=O)O)cc1)c1ccc(C(Nc2ccc(C(=O)O)cc2)P(=O)(OCC)OCC)cc1 (stereo unspecified)	> 100 µM
CC1C(O)Oc2cc3c(cc2C1c1ccccc1O)OCO3 (stereo unspecified)	> 100 µM
Cn1sc2ccccc2c1=S	4.5 µM
COC1CC(OC)C(O)C(CO)O1 (stereo unspecified)	> 100 µM
Cc1ccc(C2=NN(c3ccc(S(N)(=O)=O)cc3)C(c3cn(-c4ccccc4)nc3-c3ccccc3)C2)cc1 (stereo unspecified)	> 100 µM
FC(F)(F)c1nc(-c2ccccc2)oc1Sc1oc(-c2ccccc2)nc1C(F)(F)F	> 100 µM
CC[CH2][Sn]([CH2]CC)([O]C(=O)Cc1ccc(F)cc1)[O][Sn]([CH2]CC)([CH2]CC)[O]C(=O)Cc1ccc(F)cc1	0.232 µM
Cc1cc(=O)[nH]c(NNC(C#N)c2ccco2)n1 (stereo unspecified)	> 100 µM
CCO/C=C(\C(=O)OC)S(=O)(=O)c1ccc(C)cc1	> 100 µM
CSC1(CC(=O)N2CCCCC2)C(=O)Nc2ccccc21 (stereo unspecified)	> 100 µM
CCCN1C(=O)CNC(=O)c2[nH]cnc21	> 100 µM
COc1ccc(C2C3=C(COC3=O)Oc3cc4c(cc32)OCO4)cc1 (stereo unspecified)	> 100 µM
COc1ccc(N=CN(C)C)c(C)c1	15.2 µM
CN1CCc2cc(N)cc3c2C1Cc1ccc2c(c1-3)OCO2 (stereo unspecified)	37.2 µM
CCOC(=O)c1ccc(N=c2oc3ccc(OC)cc3cc2-c2nc3ccccc3[nH]2)cc1	> 100 µM

* * *

# maps each entry to its TGI
System: OVCAR-3 ovarian
experiment_notes: NCI tumour cell line growth inhibition, 48 h
property_name: TGI (µM)

                                    molecule  limit_qualifier  measurement
 0  N#C[S-].[Ce+3].c1cnc2c(c1)ccc1cccnc12.c1cnc2c(c1)ccc1cccnc12.c1cnc2c(c1)ccc1cccnc12                =         14.9
 1  O=C(c1cccs1)N(Cc1cccnc1)C(=S)N(Cc1cccnc1)C(=O)c1cccs1                >          100
 2  CC(C)N1[C@@H]2CCCC[C@H]2N(C(C)C)P1(=O)C(=O)/C=C/c1ccccc1                =         5.74
 3  COCN1C(=O)[C@@H]2CCCN2C(=O)c2ccc([N+](=O)[O-])cc21                >          100
 4  CCOC(=O)c1ccc(N=c2oc3ccc(OC)cc3cc2-c2nc3ccccc3[nH]2)cc1                >          100
 5  CCCCCC/C=C1\CCC(CN(C)C)C1=O (configuration not stated)                =         17.7
 6  CCN1CCN(c2ccc(Nc3ncc4ccc5ncn(C(C)C)c5c4n3)nc2)CC1                =        0.523
 7  COc1cc2c(cc1OC)-c1cc3ccc(OC)c(OC)c3c[n+]1CC2                >          100
 8     COc1ccc2nc3ccccc3c(NCc3ccc(C)cc3)c2c1                =         4.36
 9        Cc1cc2nc(C(Cl)Cl)nc(-c3ccccc3)n2n1                =         4.53
10  O=C(O)c1ccc(NNC(=O)c2cccc3c(=O)c4ccccc4[nH]c23)cc1                >          100
11  COC(=O)[C@@]12C=CC(=O)[C@H]3C[C@@H](C(C(C)C)C1)[C@]32OC (some centres not stated)                >          100
12  COC(=O)[C@@H]1OC(C)(c2ccccc2)O[C@H]1C(=O)OC                >          100
13  O=C1NC2C(CCO)CC=C[C@H]2c2cc3c(cc21)OCO3 (some centres not stated)                >          100
14  CCOC(=O)c1c(CN2CCCC2)n(-c2ccccc2)c2cc(Br)c(OC)cc12                =         61.2
15                      Nc1nc(=Nc2ccccc2)ss1                >          100
16  COc1cc2c(cc1OCCCN1CCN(c3ncnc4ccccc34)CC1)N=CC1CCCN1C2=O (configuration not stated)                =       0.0595
17  Cn1c(=O)c2[nH]c(CCCCc3nc4c([nH]3)c(=O)n(C)c(=S)n4C)nc2n(C)c1=S                >          100
18  COc1ccc2nc(-c3cc4c([nH]c5ccccc54)c(-c4ccc(F)c(F)c4)n3)[nH]c2c1                =         4.12
19  OC(CC(O)(C(F)(F)F)C(F)(F)F)C(O)c1ccco1 (configuration not stated)                >           10
20  C=CCC1C(=O)Nc2cccc3ncn(c23)C1=O (configuration not stated)                >          100
21  COc1ccc(-n2sc3ncc([N+](=O)[O-])cc3c2=O)cc1                >          100
22   CCN(CC)C(=S)SS(=O)(=O)c1ccc(NC(C)=O)cc1                >          100
23  Nc1nc(=O)n(CC(O)CO)s1 (configuration not stated)                >          100
24  COc1cc(C)c(NC(=O)CN(C)C)cc1Nc1nc(Nc2cccc(F)c2C(N)=O)c2cc[nH]c2n1                =         1.86
25  CCOC(=O)c1cc2cc(C)cc(C(=O)c3ccc([N+](=O)[O-])cc3)c2[nH]1                >          100
26  CCCc1c(C(=O)OCC)[nH]c(C(=O)CCC(=O)c2[nH]c(C(=O)OCC)c(CCC)c2C(=O)OCC)c1C(=O)OCC                >          100
27  CCOC(=O)N1C=CC(=C2C(=C3C=CN(C(=O)OCC)C=C3)C(=C3C=CN(C(=O)OCC)C=C3)C2=C2C=CN(C(=O)OCC)C=C2)C=C1                =         81.1
28  CC(C)NC(=O)OCc1c(COC(=O)NC(C)C)c(-c2ccc[n+](COC(=O)C(C)(C)C)c2)n2c1CCC2                >          100
29  N#CC1(C#N)C(c2ccccc2)C=CC(c2ccc([N+](=O)[O-])cc2)C1(C#N)C#N (configuration not stated)                =         23.2
30                  Cc1ccc(SSCCCCCS(=O)O)cc1                =         74.7
31  COc1cccc(C2c3cc4c(cc3OC(N3CCCCC3)C2C)OCO4)c1OC (configuration not stated)                =         20.7
32    COC(=O)/C=C1/OC(c2ccc(C)cc2)=C(Cl)C1=O                =         27.1
33                        Nc1nc(-c2cccs2)cs1                >          100
34                 O=C1COCCN1C(=O)c1ccccc1Cl                >          100
35     O=C(O)CCSC(=S)Nc1ccc([N+](=O)[O-])cc1                >         87.8
36  COc1ccccc1NC(=O)C(CC(C(=O)Nc1ccccc1OC)/C(C)=N/NC(=O)c1ccccc1O)/C(C)=N/NC(=O)c1ccccc1O (configuration not stated)                >          100
